Test system: HCC-2998 colon
Assay: NCI tumour cell line growth inhibition, 48 h; in the data active means GI50 below about 0.43 µM; inactive means the rest
Field 'call' accepts 1 (active), -1 (inactive)

Please review the entries below; each comes with its answer.
molecule	group
CC(=O)O[C@@H]1c2c(c3c(=O)c4cccc(O)c4c(=O)c=3c2=[N+]=[N-])[C@H](OC(C)=O)[C@@H](OC(C)=O)[C@]1(C)O	1
c1cc[c]([Ge]([O]c2cccc3cccnc23)([c]2ccccc2)[c]2ccccc2)cc1	-1
CC(C)[C@@]12C[C@@H](OC(=O)C3CO3)[C@@](C)(O1)[C@@H]1CC[C@@H](C)[C@H]1[C@@H]2OC(=O)/C=C/c1ccccc1 (some centres not stated)	-1

Qu. Query: recorded result category for COc1ccc(-c2cnc(-c3ccc(OC)cc3)n2-c2cc(OC)c(OC)c(OC)c2)cc1 in this test
Ans. -1

Qu. Query: recorded result category for COC(=O)CCc1n(Cc2ccc3ccccc3c2)c2ccccc2[n+]1Cc1ccc2ccccc2c1 in this test
Ans. -1

Qu. Query: recorded result category for CCCCN(CCCC)P(=O)(Oc1ccccc1)Oc1ccccc1 in this test
Ans. -1
